# assay-remarks: PK study in rats
# Assay type: in vivo, SD rats
# condition-info: SD, rat, plasma, 50 mg/kg single oral dose, read-out: Vz/F
# Procedure: For the PK studies in rats and dogs, a total of 18 SD rats and 15 male beagle dogs were randomly divided into three groups, with six rats or five dogs per group, respectively. […] To determine the concentration of ammoxetine, 100 μL of L-phencynonate (IS, 50 ng/mL) and 300 μL of methanol were added to 100 μL of plasma samples from rats or dogs. […] F was calculated using the formula: F=AUCp.o./AUCi.v.×100% . […]

test-smiles | Vd/F
CNCC[C@H](Oc1cccc2c1OCO2)c1cccs1 | 40.3 L/kg

---

# assay-remarks: Tissue distribution study in rats
# Assay type: in vivo
# condition-info: rat, plasma, 20 mg/kg oral, blood

compound | AUC(0-t) / ng·h/mL
CNCC[C@H](Oc1cccc2c1OCO2)c1cccs1 [ammoxetine] | 2620

---

# assay-remarks: PPB assay by ultrafiltration, dog plasma
# Type: in vitro ADME, beagle dogs
# condition-info: beagle, approximate range over 50-450 ng/mL, read-out: PPB rate
# Protocol: The PPB of ammoxetine was determined using the ultrafiltration method. Triplicate samples of rat, dog, or human plasma were spiked with ammoxetine at three final concentrations (50, 150, and 450 ng/mL). The spiked plasma samples were then incubated in a 37°C air-bath shaker for 1 h until equilibrium was reached. After incubation, 400 μL of the plasma samples were transferred to pre-saturated ultrafiltration devices. […] The PPB rate (%) of ammoxetine was calculated by dividing (C t −C f ) by C t .

test-smiles | fraction unbound at 1 h
CNCC[C@H](Oc1cccc2c1OCO2)c1cccs1 | 0.4 to 0.5

---

# Test system: P-gp (MDR1)
# assay-remarks: Bidirectional permeability measurements in MDCK-MDR1 monolayers
# Format: in vitro ADME, canine
# condition-info: dog, MDCK-MDR1; 5 μg/mL; read-out: ER [Papp(B→A)⁄Papp(A→B)]

compound | efflux ratio at 120 min, 5 μg/mL
CNCC[C@H](Oc1cccc2c1OCO2)c1cccs1 [ammoxetine] | 1.9

---

# target-desc: UniProtKB P33261
# Sequence (P33261 whole entry): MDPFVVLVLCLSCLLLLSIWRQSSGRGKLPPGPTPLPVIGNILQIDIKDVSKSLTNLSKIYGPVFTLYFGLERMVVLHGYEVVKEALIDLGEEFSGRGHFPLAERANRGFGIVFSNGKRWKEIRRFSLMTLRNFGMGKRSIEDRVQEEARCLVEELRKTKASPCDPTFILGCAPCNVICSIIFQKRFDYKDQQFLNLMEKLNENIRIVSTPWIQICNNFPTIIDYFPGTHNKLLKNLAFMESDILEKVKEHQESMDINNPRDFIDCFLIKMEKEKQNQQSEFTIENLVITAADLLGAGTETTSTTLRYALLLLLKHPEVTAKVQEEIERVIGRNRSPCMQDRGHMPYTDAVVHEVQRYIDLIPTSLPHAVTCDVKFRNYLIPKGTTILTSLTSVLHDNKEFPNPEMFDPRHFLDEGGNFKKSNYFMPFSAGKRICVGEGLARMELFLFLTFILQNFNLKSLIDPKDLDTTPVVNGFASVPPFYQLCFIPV
# assay-remarks: CYP inhibition, cocktail-substrate method in HLM
# condition-info: probe S-mephenytoin
attribute-measured: IC50

compound | measured-value
CNCC[C@H](Oc1cccc2c1OCO2)c1cccs1 [ammoxetine] | > 100 µM

---

# assay-remarks: PK studies in beagle dogs
# Type: in vivo
# condition-info: male, dog, plasma, oral; beagle dogs, 2 mg/kg, approximate value; read-out: absolute bioavailability

test-smiles | bioavailability
CNCC[C@H](Oc1cccc2c1OCO2)c1cccs1 | ~42%

---

# System: P-gp (MDR1)
# assay-remarks: Bidirectional permeability measurements in MDCK-MDR1 monolayers
# Format: in vitro ADME, canine
# condition-info: dog, MDCK-MDR1; 1 μg/mL; read-out: ER [Papp(B→A)⁄Papp(A→B)]

test-smiles | target-desc | efflux ratio at 120 min, 1 μg/mL
CNCC[C@H](Oc1cccc2c1OCO2)c1cccs1 | P-gp (MDR1) | 1.74

---

# Test system: P-gp
# assay-remarks: Bidirectional permeability measurements in MDCK-MDR1 monolayers
# Type: in vitro ADME, canine
# condition-info: dog, MDCK-MDR1, with verapamil 100 μmol/L; 5 μg/mL, verapamil 100 μmol/L

test-smiles | target-desc | Papp A→B at 120 min, 5 μg/mL, ×10⁻⁶ cm/s
CNCC[C@H](Oc1cccc2c1OCO2)c1cccs1 | P-gp | 29.9

---

# assay-remarks: PK studies in beagle dogs
# Assay type: in vivo
# condition-info: male, beagle, dog, plasma, po, 12.5 mg/kg, beagle dogs, 12.5 mg/kg single oral dose; read-out: Tmax
attribute-measured: Tmax (h)

test-smiles | measured-value
CNCC[C@H](Oc1cccc2c1OCO2)c1cccs1 | 1.4

---

# assay-remarks: PK studies in beagle dogs
# Assay type: in vivo
# condition-info: male, beagle, dog, plasma, po, 5 mg/kg, beagle dogs, 5 mg/kg oral, fed (nonfasting); read-out: CLz/F (converted)
# Experimental: For the PK studies in rats and dogs, a total of 18 SD rats and 15 male beagle dogs were randomly divided into three groups, with six rats or five dogs per group, respectively. […] To determine the concentration of ammoxetine, 100 μL of L-phencynonate (IS, 50 ng/mL) and 300 μL of methanol were added to 100 μL of plasma samples from rats or dogs. […] F was calculated using the formula: F=AUCp.o./AUCi.v.×100% . […]

test-smiles | units-text | CL/F
CNCC[C@H](Oc1cccc2c1OCO2)c1cccs1 | mL/min/kg | 49.3

---

# assay-remarks: Tissue distribution study in rats
# Format: in vivo
# condition-info: rat, brain, po, 20 mg/kg, 20 mg/kg oral, brain, read-out: AUC(0→t),tissue/AUC(0→t),blood

test-smiles | Kp
CNCC[C@H](Oc1cccc2c1OCO2)c1cccs1 | ~23.3

---

# assay-remarks: PK studies in beagle dogs
# Format: in vivo
# condition-info: male, beagle, dog, plasma, po, 5 mg/kg, male beagle dogs, 5 mg/kg single oral dose, fasted (first dose)
# Experimental: For the PK studies in rats and dogs, a total of 18 SD rats and 15 male beagle dogs were randomly divided into three groups, with six rats or five dogs per group, respectively. […] To determine the concentration of ammoxetine, 100 μL of L-phencynonate (IS, 50 ng/mL) and 300 μL of methanol were added to 100 μL of plasma samples from rats or dogs. […] F was calculated using the formula: F=AUCp.o./AUCi.v.×100% . […]
attribute-measured: AUC(0-t) (ng·h/mL)

test-smiles | attribute-measured | measured-value
CNCC[C@H](Oc1cccc2c1OCO2)c1cccs1 | AUC(0-t) | 1960

---

# assay-remarks: PK studies in beagle dogs
# Format: in vivo
# condition-info: female, beagle, dog, plasma, po, 5 mg/kg, female beagle dogs, 5 mg/kg oral, fasted; read-out: Vz/F

test-smiles | Vd/F
CNCC[C@H](Oc1cccc2c1OCO2)c1cccs1 | 20.9 L/kg

---

# assay-remarks: PPB assay by ultrafiltration, human plasma
# Type: in vitro ADME, humans
# condition-info: 150 ng/mL, read-out: Percentage of ammoxetine-protein binding rate (%) (converted)

compound | fraction unbound at 1 h, 150 ng/mL
CNCC[C@H](Oc1cccc2c1OCO2)c1cccs1 [ammoxetine] | 0.503

---

# assay-remarks: Bidirectional permeability measurements in MDCK-MDR1 monolayers
# Type: in vitro ADME, canine
# condition-info: dog, MDCK-MDR1; 5 μg/mL, 2 h
attribute-measured: Papp B→A at 2 h, 5 μg/mL (×10⁻⁶ cm/s)

test-smiles | measured-value
CNCC[C@H](Oc1cccc2c1OCO2)c1cccs1 | 25.2

---

# assay-remarks: Tissue distribution study in rats
# Assay type: in vivo
# condition-info: rat, stomach, po, 20 mg/kg, 20 mg/kg oral, stomach, read-out: AUC(0→t),tissue/AUC(0→t),blood

compound | Kp
CNCC[C@H](Oc1cccc2c1OCO2)c1cccs1 [ammoxetine] | 48.8

---

# assay-remarks: PPB assay by ultrafiltration, dog plasma
# Assay type: in vitro ADME, beagle dogs
# condition-info: beagle, 450 ng/mL, read-out: Percentage of ammoxetine-protein binding rate (%) (converted)

compound | fraction unbound at 1 h, 450 ng/mL
CNCC[C@H](Oc1cccc2c1OCO2)c1cccs1 [ammoxetine] | 0.423

---

# assay-remarks: PK study in rats
# Assay type: in vivo, SD rats
# condition-info: SD, rat, plasma, 8 mg/kg single oral dose, read-out: MRT(0-∞)
# Procedure: For the PK studies in rats and dogs, a total of 18 SD rats and 15 male beagle dogs were randomly divided into three groups, with six rats or five dogs per group, respectively. […] To determine the concentration of ammoxetine, 100 μL of L-phencynonate (IS, 50 ng/mL) and 300 μL of methanol were added to 100 μL of plasma samples from rats or dogs. […] F was calculated using the formula: F=AUCp.o./AUCi.v.×100% . […]
attribute-measured: MRT inf (h)

test-smiles | attribute-measured | measured-value
CNCC[C@H](Oc1cccc2c1OCO2)c1cccs1 | MRT inf | 4.49

---

# assay-remarks: PK studies in beagle dogs
# Assay type: in vivo
# condition-info: male, beagle, dog, plasma, iv, 2 mg/kg, beagle dogs, 2 mg/kg intravenous administration; read-out: t1/2z (converted)
attribute-measured: half-life (h)

test-smiles | measured-value
CNCC[C@H](Oc1cccc2c1OCO2)c1cccs1 | 2.72

---

# assay-remarks: Tissue distribution study in rats
# Format: in vivo
# condition-info: rat, 20 mg/kg oral, heart, spleen, lung, kidney, brain, fat and muscle, read-out: time of peak concentration in tissue
attribute-measured: Tmax (h)

test-smiles | attribute-measured | measured-value
CNCC[C@H](Oc1cccc2c1OCO2)c1cccs1 | Tmax | 2

---

# assay-remarks: PK study in rats
# Type: in vivo, SD rats
# condition-info: SD, rat, plasma, 8 mg/kg single oral dose

test-smiles | units-text | AUC(0-inf)
CNCC[C@H](Oc1cccc2c1OCO2)c1cccs1 | ng·h/mL | 1370
